target: human α-galactosidase A (GLA; α-Gal A) (Homo sapiens, UniProt P06280); construct: heart tissue cryosections; no tag stated; assay: saturation autoradiography on heart sections, one-site specific binding fit; settings: pH 5.0 McIlvaine buffer, 23 °C, 60 min; nonspecific binding defined with [19F]AGAL; active site; covalent (proposed); labelled compound; GLA in tissue sections of AAVGLA-treated Gla knockout mice
Sequence (P06280 32-429): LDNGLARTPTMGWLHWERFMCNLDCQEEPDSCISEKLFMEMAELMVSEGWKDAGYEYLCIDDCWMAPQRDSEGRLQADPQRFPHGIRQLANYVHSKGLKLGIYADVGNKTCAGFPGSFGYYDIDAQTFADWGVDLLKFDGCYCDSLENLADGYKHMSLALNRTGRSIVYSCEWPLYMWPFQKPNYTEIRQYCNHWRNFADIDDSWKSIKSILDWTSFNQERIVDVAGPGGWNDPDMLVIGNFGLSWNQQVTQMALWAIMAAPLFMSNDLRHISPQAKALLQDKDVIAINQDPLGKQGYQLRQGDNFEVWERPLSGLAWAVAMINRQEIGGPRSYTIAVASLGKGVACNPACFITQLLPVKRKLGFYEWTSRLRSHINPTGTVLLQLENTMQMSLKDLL
Readout label: Kd

Would you mind telling me what Kd value was observed for O=C(CCCCCCCn1cc(CCCF)nn1)N1C2C(O)C(O)C(O)C(CO)C21 (stereo not shown) [[^18F]AGAL] ?
~20 nM
